- experimental.system: Oxysterols receptor LXR-alpha (Homo sapiens)
- protocol.summary: ATG_LXRa_TRANS: Attagene TRANS-FACTORIAL HepG2 Assay for human Liver X Receptor alpha (LXRa) (AID 2282980)
- reported.conditions: HepG2 Attagene TRANS reporter, LXRa transactivation
Results filed as inconclusive are left out. The source made the active and inactive calls. Rule for the calls: active = hit-call score of the fitted dose curve at least 0.9, where 1 is the maximum; inconclusive = response in the unintended direction; inactive = score below 0.9.
Reply using exactly one outcome from active, inactive

| molecule | category |
| --- | --- |
| CCCC[n+]1ccccc1 | inactive |
| CC(=O)c1c(C)cc(C(C)(C)C)cc1C | inactive |
| C#C[C@]1(O)CC[C@H]2[C@@H]3CCC4=Cc5oncc5C[C@]4(C)[C@H]3CC[C@@]21C | active |
| NC(=O)c1ccccc1Cl | inactive |
| C[C@]12CC[C@H]3[C@@H](CCC4=CC(=O)CC[C@@]43C)[C@@H]1CC[C@@H]2C(=O)CO | inactive |

Shift focus to the following entry.
Task item: Which result was noted for this molecule in the test: C=C(C)C1CCC(C)CC1O (centres undefined)
Reply: inactive

====

- Read-out: Human Leukocyte Antigen - DR isotype (HLADR), HLA-DRA (gene 3122)
- protocol.summary: BSK_3C_HLADR: BioMAP Diversity Plus: 3C Assay for Human Leukocyte Antigen - DR isotype (HLADR) Biomarker Activity (AID 2283019)
- reported.conditions: primary human endothelial cells (HUVEC); actives raise or lower the signal
Calls of active or inactive are those of the source. Rule for the calls: active = hit-call score of the fitted dose curve at least 0.9, where 1 is the maximum; inactive = score below 0.9.
recorded.metric: AC50

Sample answers from the record:
| compound | result.value |
| --- | --- |
| Nc1cc([N+](=O)[O-])ccc1O | inactive |
| O=C(O)C[C@H](O)C[C@H](O)/C=C/c1c(C2CC2)nc2ccccc2c1-c1ccc(F)cc1 | inactive |
| OC[C@H]1O[C@H](O[C@]2(CCl)O[C@H](CCl)[C@@H](O)[C@@H]2O)[C@H](O)[C@@H](O)[C@H]1Cl | inactive |
| N#Cc1ccc(CC(=NNC(=O)Nc2ccc(OC(F)(F)F)cc2)c2cccc(C(F)(F)F)c2)cc1 | inactive |
| c1ccc2c(c1)c1cccc3ccc4cccc2c4c31 | 0.206 µM (active) |
| O=C1OC2(c3cc(Br)c(O)c(Br)c3Oc3c2cc(Br)c(O)c3Br)c2c(Cl)c(Cl)c(Cl)c(Cl)c21 | 2.68 µM (active) |

Task item: What AC50 value was documented for this compound, CC1COc2ccccc2N1C(=O)C(Cl)Cl (stereo not drawn) ?
Reply: 7.04 µM (active)

====

- protocol.summary: CEETOX_H295R_CORTISOL: CeeTox H295R High-throughput Steroidogenesis Assay for Cortisol (AID 2283438);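 note: cortisol secreted into medium quantified by LC-MS/MS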
- reported.conditions: actives raise or lower the signal
The source made the active and inactive calls. How the source made its calls: active means hit-call score of the fitted dose curve at least 0.9, where 1 is the maximum; inactive means score below 0.9.
Reply using exactly one outcome from true for active, false for inactive

Task item: Which result was noted for this molecule in the test: `C=CCOc1nc(OCC=C)nc(OCC=C)n1`
Reply: true

Task item: Which result was noted for this molecule in the test: `Cc1cccc(C)c1C`
Reply: false

Task item: Which result was noted for this molecule in the test: `O=C(O)C[C@H](O)C[C@H](O)/C=C/c1c(C2CC2)nc2ccccc2c1-c1ccc(F)cc1`
Reply: false

Task item: Which result was noted for this molecule in the test: `O=C(O)c1ccc([N+](=O)[O-])cc1`
Reply: false

Task item: Which result was noted for this molecule in the test: `Nc1ccc(F)c([N+](=O)[O-])c1`
Reply: false

Task item: Which result was noted for this molecule in the test: `COc1cc2ncnc(Nc3cccc(Cl)c3)c2cc1OC`
Reply: false

Task item: Which result was noted for this molecule in the test: CC1COc2ccccc2N1C(=O)C(Cl)Cl (configuration not stated)
Reply: true

Where these numbers come from: PubChem BioAssay (EPA / NIEHS)
